experiment: Solubility of indicator in polymonoguanadine fixer; details: 0.01% in 4 wt % polymonoguanadine fixer
recorded.endpoint: Solubility @ 0.01 %

INSERT INTO assay_data (smiles_data, experimental_result) VALUES
  ('CCN(CC)c1ccc2c(C)cc(=O)oc2c1', 'Yes'),
  ('Cc1ccc2c(c1)sc(-c1ccc(N(C)C)cc1)[n+]2C.[Cl-]', 'Yes'),
  ('CCN(CC)c1ccc2cc(-c3nc4ccccc4[nH]3)c(=O)oc2c1', 'No'),
  ('CN(C)c1ccc2c(C(F)(F)F)cc(=O)oc2c1', 'No');

Record request: Solubility @ 0.01 % value, item CCN(CC)CCc1c(C)c2ccc(O)cc2oc1=O.Cl
Yes
